- procedure_summary: soluble on expression in E. coli; label from the status in PepcDB or PDB records
measurement_label: soluble on expression in E. coli

SLKCYTCKEPMTSASCRTITRCKPEDTACMTTLVTVEAEYPFNQSPVVTRSCSSSCVATDPDSIGAAHLIFCCFRDLCNSEL : soluble
MAHHHHHHMAEDTITFLRTVGKLKETDRTGWVEHGIPNPESVSDHMYRVAVMCMMCPDEKLDRNKLIRMALCHDAGESIVGDISPKMGVSKEDKYNQEKAAVLHLTGLLEKESPLSRELHELWEEYEAQHTPEAQFLKDIDLLEMVAQAHAYELAHPKKDLSSFFVSGEKIKHPWARNIYETLLRTRSSEK : soluble
MGSDKIHHHHHHMITYQEQWQKMQMALAIRRIPQAMLFSGSLHCGLIEFTNQVIKLLLCKIKQNEPCLTCMDCQMIERFEHPDVEWIKPERSGGIIKIDQIRGLQSTAFLTPQRTNHKLIIIESAESMNIAASNALLKILEEPAQHTIFILLAQQIGNIPPTVLSRCQITQFAVFDELPCNNLLALGEYYTQELNSTMVFKHSESILEGLIAIIERREHPCTLAAQWIQHELSAFLWFLYLIYSQLQYMHLFRVAYSGTLTKQLNKLSSLLNPVMIFAQVDKINTLLRKLSHNMNINHTLVLEDLLFSLVVDY : not soluble
MHTNERKTVVYEYQNEQEVVMKVKELELQGVRHDDIYVLAHEKHITKRIADDTNTNTIGVKEQGLGTSIINFFSKKGDELRNQMEEMGLSKEEANLYEEKLDQGKILLLVTAEVPMANDRQPQNYHSL : not soluble
MGEEKKKRTVEITIGGKLRSFDIDDPVLPDWVEEKKLSAGNFPYDKKMKREDYDATLEALQVELVKVQFWLQATGKRVMAVFEGRDAAGKGGAIFATHAYLNPRYARVVALTKPTETERGQWYFQRYISHFPTAGEFVLFDRSWYNRAGVEPVMGFCTPDEHKRFLKETPRLEKMLVHDDIHLFKFWLDIGRETQIERFHDRRQSPLKCWKLSDMDIAALTKWDDYTQKRDEMLEKTHTDAAPWTVVRANDKRRARVNLIRHILLALDYEGKDRQAIGEIDDKILGSGPDFLK : not soluble
MHSLTSRAPAEPDERLQALKRLIGKVTPQIGLNDVCKTSIPDLTFYRMDKLATPTYCIYEPCVAIILQGAKEITFGEQACEFAQGSFFVTSVDIPTLARVTAASEQTPYLSIVLKLDLSMLNDVIQTQAPLKQEATPEARGFASGMASSEMLDAFARLSALTGQPLEAGLMSDLIKREICVRLLLSCAGQWLRSVTRDGYRDKGIVRAIEWLKLHYDEPLHVAQLAQLSGMASSTLHHNFRKLTGTSPVQYQKSLRLQAARSLMLTERVDVNTAALRVGYESVAQFSREYARRFGAPPSRDIKYAREAGGRRD : not soluble
WKITDEQRQYYVNQFKTIQPDLNGFIPGSAAKEFFTKSKLPILELSHIWELSDFDKDGALTLDEFCAAFHLVVARKNGYDLPEKLPESLMPK : soluble
MATSSSAFDDELPMEEGMPELLDDEDVPSTLPSLLEQNLDTAPKGDEFKLVKRKRKSGNAIDVVMEDVSQVDEDATADTADDSTGPKSSKRTKGVKGESRVVPVPKHRYTPLKDNWVNIFTPIVKNLGLQVRFNLKKRQVEIRNPVDREDTTDLQKATDFVRAFILGFEVNDAIALIRLDHLFLETFEVADVKHSLKGDHVSRAIGRIAGKDGRTKLVIENTTKTRIVVANTKIHILGAYQNLKLARNAVCSLILGSNPSKVYGSLRNMASRGAERL : not soluble
MAAYKLVLIRHGESAWNLENRFSGWYDADLSPAGHEEAKRGGQALRDAGYEFDICFTSVQKRAIRTLWTVLDAIDQMWLPVVRTWRLNERHYGGLTGLNKAETAAKHGEAQVKIWRRSYDVPPPPMEPDHPFYSNISKDRRYADLTEDQLPSCESLKDTIARALPFWNEEIVPQIKEGKRVLIAAHGNSLRGIVKHLEGLSEEAIMELNLPTGIPIVYELDKNLKPIKPMQFLGDEETVRKAMEAVAAQGKAKK : soluble
MGSDKIHHHHHHMAGEPRLGRTGPRVSRVGLGLWQFGSPMWGGKALSADVLARGLSIAVEEGINLLDTAEVYGMGSSERMLGEALKRLNAREDFVIVSKVAGFRSTAGDIVKGARGIAGRLSSAPDVILHHWPPPVYSRLCSVVRGLEQAVNEGLASYYGFSNYGEDLLGDALSCTRRLEPVADQILYNLAYRTPEQRLIPLLHQHGMTPIAWSPLAKGALAGFKGEPTRAQAGDPVFRTALEDTGLQEVLESVARRLGASKASVALAWVAYKGAVPIVGWRRPERVREAAAAARLKLSEEDVALLDEASKRYVTLWGSSYSPPGLRRIRLIPGALQRLAIRLWGGI : not soluble
MTDKLPLALFLMGPTASGKTELAIRLRQKFPVEIISVDSALIYKGMDIGTAKPDERELSLAPHRLIDILDPSESYSAADFRRDALQAMDDIVAEGKIPLLVGGTMLYYKALLEGLSPLPAANPEIRQQIEQEALTKGWSVLHDELKEIDPVSAARIHPNDPQRLSRALEVYRISGKTLTELTQTKGESLPYRVKQFAIAPKDRAELHRRIELRFDKMMEAGFEEEMKALYARKDLHPDLPSIRCVGYRQMWEYLDGECTRDEAVFRGVCATRQLAKRQITWLRSWDDLTWLDSDNIEQALETMSEAIASDLEHHHHHH : soluble
MPQDYISYIRSKVGHDKIILNFAGGILTNDDGKVLMQLRGDKKTWTIPGGTMELGESSLETCKREFLEETGIEVEAVRLLNVYTHFEEVYPNGDAVQTIVFIYELTAVSDMAIDNFHNEETLKLQFFSHEEIAELESVSAKHRLMLEEYFSDSFAMGH : not soluble
